- test target: T1, human ActRIIB (human, UniProt Q13705 19-137, limits assumed)
- T1 construct: antigen in MSD-SET; also called ACVR2B; ActR2B
- T1 sequence: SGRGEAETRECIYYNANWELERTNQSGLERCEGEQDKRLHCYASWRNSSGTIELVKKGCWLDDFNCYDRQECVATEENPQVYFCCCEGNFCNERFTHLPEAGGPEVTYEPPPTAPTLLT
- protocol text: MSD-SET, Fab KD over IgG KD
readout name: Fold difference (Fab:IgG) (fold)
Write the value in fold as a bare number.

A selection of reference data follows.
May I ask what Fold difference (Fab:IgG) has been recorded for Rippla Fab (Fab, V domains shown, Fab) VH: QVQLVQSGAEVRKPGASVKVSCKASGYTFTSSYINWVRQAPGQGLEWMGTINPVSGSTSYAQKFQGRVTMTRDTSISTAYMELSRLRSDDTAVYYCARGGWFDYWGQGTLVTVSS VL: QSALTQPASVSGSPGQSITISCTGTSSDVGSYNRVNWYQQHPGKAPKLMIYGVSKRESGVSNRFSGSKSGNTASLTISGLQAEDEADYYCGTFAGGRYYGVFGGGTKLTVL ?
1.1

May I ask what Fold difference (Fab:IgG) has been recorded for Biiramooscht Fab (Fab, V domains shown, Fab) VH: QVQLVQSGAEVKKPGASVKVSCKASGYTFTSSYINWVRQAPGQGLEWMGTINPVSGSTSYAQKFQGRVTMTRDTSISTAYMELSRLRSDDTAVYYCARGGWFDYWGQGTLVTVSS VL: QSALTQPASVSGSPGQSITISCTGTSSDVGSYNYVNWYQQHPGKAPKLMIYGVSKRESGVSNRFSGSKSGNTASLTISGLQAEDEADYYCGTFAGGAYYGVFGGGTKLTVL ?
4.4

May I ask what Fold difference (Fab:IgG) has been recorded for Fasnetsküchla Fab (Fab, V domains shown, Fab) VH: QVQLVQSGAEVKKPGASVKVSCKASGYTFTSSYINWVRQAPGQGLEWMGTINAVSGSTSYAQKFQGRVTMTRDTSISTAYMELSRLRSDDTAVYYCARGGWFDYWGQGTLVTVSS VL: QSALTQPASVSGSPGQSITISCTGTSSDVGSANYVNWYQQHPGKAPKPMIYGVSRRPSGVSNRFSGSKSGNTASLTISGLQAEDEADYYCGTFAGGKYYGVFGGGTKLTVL ?
3.1

Next up:
May I ask what Fold difference (Fab:IgG) has been recorded for Riaba Fab (Fab, V domains shown, Fab) VH: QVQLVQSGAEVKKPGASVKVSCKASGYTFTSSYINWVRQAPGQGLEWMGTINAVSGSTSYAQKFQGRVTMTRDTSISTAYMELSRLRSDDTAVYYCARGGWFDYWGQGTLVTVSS VL: QSALTQPASVSGSPGQSITISCTGTSSDVGSYNYVNWYQQHPGKAPKLMIYGVSKRDSGVSNRFSGSKSGNTASLTISGLQAEDEADYYCGTFAGGKYYGVFGGGTKLTVL ?
369
